assayed-target: HLA-B*40:01
experiment-summary: IEDB peptide-MHC binding, purified MHC/direct/fluorescence; filed as Kd, often an IC50 or EC50 that approximates it; bounds were set here for any values at or beyond the usual limits of such assays
condition-info: source organism: Escherichia coli O157:H7
endpoint: Kd

Form: sequence = IAIPAHVRL ; Kd = ≥ 5 µM

====

assayed-target: HLA-B*58:01
experiment-summary: IEDB peptide-MHC binding, purified MHC/competitive/radioactivity; filed as Kd, often an IC50 or EC50 that approximates it; bounds were set here for any values at or beyond the usual limits of such assays
condition-info: source organism: Dengue virus 3 Sri Lanka/1266/2000
endpoint: pKd
The meaning of pKd here: minus log10 of the concentration in molar units.

Form: sequence = AAVEDEEFW ; pKd = 8.36

====

assayed-target: HLA-B*27:05
experiment-summary: IEDB peptide-MHC binding, purified MHC/direct/fluorescence; filed as Kd, often an IC50 or EC50 that approximates it; bounds were set here for any values at or beyond the usual limits of such assays
condition-info: source organism: Pseudomonas aeruginosa
endpoint: Kd (µM)
Write it as a number; the unit µM goes unstated.

Entry RSFAERLDR ; assay system HLA-B*27:05; Kd recorded at 3.46

====

assayed-target: HLA-B*15:01
experiment-summary: IEDB peptide-MHC binding, purified MHC/competitive/fluorescence; filed as Kd, often an IC50 or EC50 that approximates it; bounds were set here for any values at or beyond the usual limits of such assays
condition-info: source organism: Escherichia coli
pKd: −log10 of the molar value.
endpoint: pKd

Form: sequence = RYWRLRYRI ; pKd = ≤ 4.70

====

assayed-target: HLA-A*03:01
experiment-summary: IEDB peptide-MHC binding, purified MHC/direct/fluorescence; filed as Kd, often an IC50 or EC50 that approximates it; bounds were set here for any values at or beyond the usual limits of such assays
condition-info: source organism: West Nile virus
endpoint: pKd
The meaning of pKd here: minus log10 of the concentration in molar units.

Form: sequence = GVNKQTAMK ; pKd = 6.22

====

assayed-target: HLA-B*51:01
experiment-summary: IEDB peptide-MHC binding, purified MHC/competitive/radioactivity; filed as Kd, often an IC50 or EC50 that approximates it; bounds were set here for any values at or beyond the usual limits of such assays
condition-info: source organism: SARS coronavirus Tor2
endpoint: Kd (µM)
Write it as a number; the unit µM goes unstated.

Entry KPPISFPLCA ; assay system HLA-B*51:01; Kd recorded at 9.52

Entry APHGVVFLHV ; assay system HLA-B*51:01; Kd recorded at 7.81

Entry MPASWVMRI ; assay system HLA-B*51:01; Kd recorded at 0.0671

====

assayed-target: HLA-B*39:01
experiment-summary: IEDB peptide-MHC binding, purified MHC/competitive/fluorescence; filed as Kd, often an IC50 or EC50 that approximates it; bounds were set here for any values at or beyond the usual limits of such assays
condition-info: source organism: Araucaria virus
pKd: −log10 of the molar value.
endpoint: pKd

Entry GVPELGAFF ; assay system HLA-B*39:01; pKd recorded at ≤ 4.70

====

assayed-target: HLA-A*02:01
experiment-summary: IEDB peptide-MHC binding, purified MHC/competitive/radioactivity; filed as Kd, often an IC50 or EC50 that approximates it; bounds were set here for any values at or beyond the usual limits of such assays
condition-info: source organism: Dengue virus 2 Thailand/NGS-C/1944
endpoint: Kd (nM)
Write it as a number; the unit nM goes unstated.

Entry FLFLMSGRGI ; assay system HLA-A*02:01; Kd recorded at 4.21
